Experiment: PSAC antagonists in infected red cells, primary screen, cell-based, P. falciparum Indochina, OD700, 1 h (AID 1154)
Conditions: P. falciparum Indochina infected RBC osmotic lysis, higher = more signal, called active from +8 up or from −8 down
The reader will find reported z-score values listed item by item below.
Hey, just send me the number, nothing else.

Sample records with z-score:
| Structure as smiles | z-score |
| --- | --- |
| CN(C)CCCC[C@@H]1NC(=O)[C@H]2C[C@@H](C(=O)NCCCCCCN)[C@@H](c3ccc(O)cc3)N2C1=O | 0.453 |
| C=CCOC(=O)[C@H]1[C@@H]2C(=O)O[C@@H](c3ccccc3)[C@@H](c3ccccc3)N2[C@@H](c2ccc(OCCOC(=O)[C@H]3C[C@H]4C(=O)N[C@@H](CCCCN(C)C)C(=O)N4[C@H]3c3ccc(O)cc3)cc2)[C@]12C(=O)Nc1ccc(I)cc12 | 5.21 |

Please fill in: z-score reported for CC(C)[Si](C#Cc1ccc(Oc2ccccc2)cc1)(O[Si](C#Cc1ccc(Oc2ccccc2)cc1)(C(C)C)C(C)C)C(C)C = 2.62

----------
The reader will find reported composite z-score values listed item by item below.
Test: binders of probe aFST on microarray, primary screen, stem cell growth factor project, biochemical, small-molecule microarray, fluorescence 635/667 (AID 1086);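 also: score merges 667 nm fluorescence with signal-to-noise of each printed compound spot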
Conditions: higher = more signal
Hey, just send me the number, nothing else.

| Structure as smiles | composite z-score |
| --- | --- |
| COCCOC(=O)N1C(=O)[C@@]2(c3cc(C#CCC(C(=O)OC)C(=O)OC)ccc31)[C@H](c1ccccc1OCCO)N1[C@H](c3ccccc3)[C@H](c3ccccc3)OC(=O)[C@H]1[C@@H]2C(=O)NC[C@H](O)c1ccccc1 | 0.357 |
| CO[C@H]1O[C@H](CO)[C@@H](OC(=O)Nc2cccc(F)c2)[C@H](OC(=O)Nc2ccccc2)[C@@H]1OC(=O)Nc1ccccc1 | 0.7 |
| CCOC(=O)C[C@H]1[C@H](OC(=O)c2ccccc2-c2ccccc2)[C@@H](NC(=O)CC(C)C)c2cc(OCCCO)ccc2N1C(=O)Cc1ccc(OC)cc1 | 0.327 |

Please fill in: composite z-score reported for C=CCOC(=O)[C@H]1[C@@H]2C(=O)O[C@@H](c3ccccc3)[C@@H](c3ccccc3)N2[C@@H](c2ccc(OCCOC(=O)[C@H]3C[C@H]4C(=O)N[C@@H](CCCC[N+](C)(C)C)C(=O)N4[C@H]3c3ccc(O)cc3)cc2)[C@]12C(=O)Nc1ccc(I)cc12 = -0.333

Please fill in: composite z-score reported for COC(=O)[C@H](Cc1ccccc1)N[C@@H](/C=C/C1CC1)[C@H](O)Cc1ccccc1 = -0.575

----------
Test: mitochondrial membrane potential change in A549 cells, profiling panel, cell-based, JC-1 fluorescence, basal, 24 h, 100 nL (AID 1138);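 also: A549 lung adenocarcinoma cells under basal conditions with no added stimulus; test concentration not given here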
Conditions: higher = more signal
Quantity name: z-score
Hey, just send me the number, nothing else.

Sample records with z-score:
| Compound | Reported result |
| --- | --- |
| CN1C(=O)C2C=CC(C(O)C#Cc3ccccc3)N(N3CCCCC3)C2C1=O (stereo not drawn) | 0.534 |
| CN(C)CCCCCCNC(=O)[C@H]1C[C@H]2C(=O)N3CCC[C@H]3C(=O)N2[C@H]1c1ccc(O)cc1 | -0.727 |
| NC(=O)[C@@H]1[C@H]2C(=O)O[C@H](c3ccccc3)[C@H](c3ccccc3)N2[C@H](c2ccc(O)cc2)[C@@]12C(=O)Nc1ccccc12 | -1.11 |
| CC(C)[Si]1(C(C)C)O[C@@H](c2ccccc2)c2cc(-c3ccc(-c4ccc(Cl)c(Cl)c4)o3)nc(-c3ccccc3)c21 | -0.133 |
| C=C(/C(=C/C[C@H](OC(C)=O)c1ccc(CO)o1)c1cc(C(=O)OC)ccc1OC)C(C)C | -0.483 |
| CCC[C@@H]1C[C@@]1(CCC)[C@@H](NC(=O)c1ccccc1)c1cccc(Cl)c1 | 0.349 |

Please fill in: z-score reported for CCC[C@@H]1C[C@@]1(CCC)[C@@H](NS(=O)(=O)c1cccc2cccnc12)c1ccc(Cl)cc1 = 2.3

Please fill in: z-score reported for COc1ccc([Si](C)(C)[C@@H]2[C@@H](CCO)O[C@]3(C(=O)N(Cc4ccc(N(C=O)c5ccccc5)cc4)c4ccccc43)[C@H]2C)cc1 = -0.0272
